meta.source: PubChem BioAssay

test: MRP1 drug-resistance reversers in H69AR cells – cell-based, doxorubicin co-treatment, pilot screen (AID 601); settings: H69AR cells, CellTiter-Glo, 72 h; compound alone cytotoxicity; at 10 µM
endpoint_name: viability (%)

{"columns": ["compound", "endpoint_unit", "meas_value"],
 "data": [
  ["Clc1ccc(SCCCCn2ccnc2)cc1", "%", 99.2],
  ["Cc1ccc(N(C(=O)c2ccncc2)C2C=CS(=O)(=O)C2)cc1 (stereo unspecified)", "%", 103],
  ["CC1CCN(c2oc(-c3ccccc3F)nc2C#N)CC1", "%", 92],
  ["Cc1ccccc1Cn1ccc(NC(=O)c2onc(C)c2Cl)n1", "%", 100],
  ["CCc1nnc(NC(=O)COC(=O)CN2C(=O)c3ccccc3C2=O)s1", "%", 109],
  ["Cc1c(NC(=O)c2ccc(CN3CCc4ccccc4C3)cc2)c(=O)n(-c2ccccc2)n1C", "%", 98.8]
]}

====

The following compounds are listed with their measured RAM network inhibition values.
test: RAM signaling pathway blockade in yeast – S. cerevisiae, Pdr1DBD-CYC8 efflux-inhibited sensitized strain, primary screen (AID 1298);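 note: 0% = DMSO untreated cells without growth and 100% = 10 µM 1-NA-PP1 full growth; higher means more yeast growth rescued from 5-FOA killing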; conditions: S. cerevisiae cbk1-as DSE1-URA3 strain, 5-FOA growth OD615, 2 d; at 50 µM; stronger effect = higher value
Calls of active or inactive are those of the source.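 Rule for the calls: active = RAM network inhibition above 8.4% in each of two replicates, 3 SD over the compound average; inconclusive = above 8.4% inhibition in only one replicate; inactive = 8.4% inhibition or less in each replicate.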

{"columns": ["compound", "RAM network inhibition"],
 "data": [
  ["O=C(CCc1nc2ccccc2[nH]1)NC1CCCCC1", "1.28% (inactive)"],
  ["COc1ccc(OC)c2[nH]c(=O)c(CCNC(=O)C(C)C)cc12", "1.31% (inactive)"],
  ["CC(C)(C)NC(=O)c1cnn2c1NC(c1ccc(F)cc1)CC2C(F)(F)F (stereo not given)", "6.9% (inactive)"],
  ["COc1ccc(CN2C(=O)CN=C2Nc2ccc(C)cc2C)cc1", "5.11% (inactive)"],
  ["Cc1[nH]nc2c1C(=O)CC(C)(C)C2", "1.23% (inactive)"],
  ["O=C(COc1ccc2ccccc2c1)N1CCCC1", "6.48% (inactive)"],
  ["Brc1cccc(-c2nnc(SCc3ccon3)n2-c2ccccc2)c1", "0.07% (inactive)"],
  ["O=C(Nc1cccc2ccccc12)c1ccc(Br)o1", "3.58% (inactive)"],
  ["COc1ccc(N(C)C(=O)CCS(=O)(=O)c2cccc3nonc23)c(OC)c1", "3.65% (inactive)"],
  ["CCc1cc(=O)n2[nH]c(C)c(-c3ccccc3OC)c2n1", "1.78% (inactive)"],
  ["CCCCn1c(NCc2ccccc2O)nc2ccccc21", "3.36% (inactive)"],
  ["CCOC(=O)C(CC)(CCC(=O)O)c1csc(N)n1 (stereo not given)", "-1.93% (inactive)"],
  ["CCOc1ccc2nc(Nc3nc4c(c(=O)[nH]3)CCC4)nc(C)c2c1", "3.45% (inactive)"],
  ["C1CCC2(CC1)C1=C(CCCC1)Nc1nnnn12", "5.77% (inactive)"],
  ["Cc1ccc(NC(=O)CSc2nnc(Cn3c(=O)sc4ccccc43)n2C)cc1", "8.73% (inactive)"],
  ["CSC1=N/C(=C\\C=C\\c2cccs2)C(=O)S1", "6.92% (inactive)"],
  ["CC(=O)Nc1ccc(S(=O)(=O)N2CCN(CCC#N)CC2)cc1", "0.19% (inactive)"],
  ["CC(C)c1ccc(-c2nc(N3CCCCC3)[nH]c(=O)c2C#N)cc1", "8.32% (inactive)"],
  ["O=C(c1ccc(CS(=O)(=O)c2c(Cl)cccc2Cl)o1)N1CCN(c2ccccn2)CC1", "3.34% (inactive)"],
  ["CCOc1cc(C2CC(=O)N3CN(C4CCCCC4)CSC3=C2C#N)ccc1O (stereo not given)", "2.85% (inactive)"],
  ["Cc1cc(C)c(NC(=O)CSc2nc3c(c(=O)n2C)SC(C)C3)c(C)c1 (stereo not given)", "4.95% (inactive)"],
  ["CCCCOC(=O)Cn1c(=O)oc2ccc(C)cc21", "0.27% (inactive)"],
  ["CC(=O)Nc1ccc(S(=O)(=O)N2CCN(C(=O)CCC3CCCC3)CC2)cc1", "2.16% (inactive)"],
  ["Clc1cc(Br)ccc1OCCOCCN1CCOCC1", "0.08% (inactive)"],
  ["N#CC(=C1SC=CS1)c1nc(-c2ccccc2)cs1", "9.12% (inactive)"],
  ["Cc1c(NC(=O)c2ccc(CN3CCc4ccccc4C3)cc2)c(=O)n(-c2ccccc2)n1C", "5.97% (inactive)"],
  ["COC(=O)c1oc2ccc(Br)cc2c1NC(=O)CCCN1C(=O)c2ccccc2C1=O", "7.77% (inactive)"],
  ["CN1CCN(C(=O)c2ccc(CS(=O)(=O)c3c(Cl)cccc3Cl)o2)CC1", "0.22% (inactive)"],
  ["c1ccn2c(SCc3ccc4c(c3)OCCO4)nnc2c1", "5.34% (inactive)"],
  ["COCCn1c(=O)[nH]c2cc(C(=O)NCCCN3CCN(c4ccc(F)cc4)CC3)ccc2c1=O", "8.31% (inactive)"],
  ["Nc1c(C(=O)Nc2ccc(Cl)cc2)oc2ccccc12", "2.51% (inactive)"],
  ["CCCCOc1ccccc1NC(=O)CC1Nc2ccccc2NC1=O (stereo not given)", "7.51% (inactive)"],
  ["O=C1c2ccccc2C(Nc2ccc(F)c(Cl)c2)N1Cc1ccco1 (stereo not given)", "7.74% (inactive)"],
  ["COc1cccc(NC(=O)c2nnn(Cc3ccc(Br)cc3F)c2N)c1", "5.85% (inactive)"],
  ["COc1ccc(S(=O)(=O)N2CCC(C(N)=O)CC2)cc1", "4.25% (inactive)"]
]}
